All figures here come from patent US20230056497A1.

test: Pharmacokinetics (PK) profile, plasma concentration versus time; assay type: in vivo; conditions: PO (Per Os, oral), 30 mg/kg, 2.0 h
recorded_metric: concentration at 2 h (nM)
Give the value, in units of nM, as a plain number.

input: Tell me the measured concentration at 2 h of O=C(NCCc1cnc[nH]1)c1ccc(-c2ncc3cnc(-c4ccccc4)cn23)cc1 [Compound 1] , please.
output: 163

###

assay: Pharmacokinetics (PK) profile, plasma concentration versus time; type: in vivo; details: PO (Per Os, oral), 30 mg/kg, 1.0 h
recorded_metric: concentration at 1 h
# answer = value followed by unit

input: Tell me the measured concentration at 1 h of O=C(NCCc1cnc[nH]1)c1ccc(-c2ncc3cnc(-c4ccccc4)cn23)cc1 , please.
output: 23 nM

###

assay: Pharmacokinetics (PK) profile, plasma concentration versus time; type: in vivo; details: PO (Per Os, oral), 30 mg/kg, 0.5 h
recorded_metric: concentration at 0.5 h (nM)
Give the value, in units of nM, as a plain number.

input: Tell me the measured concentration at 0.5 h of O=C(NCCc1cnc[nH]1)c1ccc(-c2ncc3cnc(-c4ccccc4)cn23)cc1 , please.
output: 16

###

assay: Pharmacokinetics (PK) profile, plasma concentration versus time; format: in vivo; details: IP (intraperitoneal), 20 mg/kg, 0.5 h
recorded_metric: concentration at 0.5 h (µM)
Give the value, in units of µM, as a plain number.

input: Tell me the measured concentration at 0.5 h of O=C(NCCc1cnc[nH]1)c1ccc(-c2ncc3cnc(-c4ccccc4)cn23)cc1 , please.
output: 7.6

###

assay: Pharmacokinetics (PK) profile, plasma concentration versus time; format: in vivo; conditions: PO (Per Os, oral), 30 mg/kg, 4.0 h
recorded_metric: concentration at 4 h
# answer = value followed by unit

input: Tell me the measured concentration at 4 h of O=C(NCCc1cnc[nH]1)c1ccc(-c2ncc3cnc(-c4ccccc4)cn23)cc1 [Compound 1] , please.
output: 11 nM

###

assay: Pharmacokinetics (PK) profile, plasma concentration versus time; assay type: in vivo; conditions: IP (intraperitoneal), 20 mg/kg, 2.0 h
recorded_metric: concentration at 2 h (µM)
Give the value, in units of µM, as a plain number.

input: Tell me the measured concentration at 2 h of O=C(NCCc1cnc[nH]1)c1ccc(-c2ncc3cnc(-c4ccccc4)cn23)cc1 , please.
output: 5.84
